# target entity: T1, Hse1, P38753
# T1 sequence (P38753 208-285, looked up): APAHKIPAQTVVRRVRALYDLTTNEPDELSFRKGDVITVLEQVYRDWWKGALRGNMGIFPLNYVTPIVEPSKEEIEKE
# experiment: SPOT array
# condition details: median of control spots 1727
SPOT intensity reference
Answer as a number with no unit attached.

binder	SPOT intensity
KRRTSLFPWLHKPGI	19
SRQAIPPPVPNRPGG	22

Note to self: SPOT intensity recorded for `HGKRRAPLLLAKLDV` was 0

Note to self: SPOT intensity recorded for `RKQRSIPLSPIVPES` was 0

Note to self: SPOT intensity recorded for `PIVPSSPAPPLPLSG` was 0

Note to self: SPOT intensity recorded for `GRLRPKRIAPWHLIQ` was 9

Note to self: SPOT intensity recorded for `SSSSSPPPLPTRRDH` was 4

Note to self: SPOT intensity recorded for `AIPPPVPNRPGGTTN` was 22

Note to self: SPOT intensity recorded for `IKTRSVPKIPSIESV` was 0

Note to self: SPOT intensity recorded for `RRSKSLPITPKSIFN` was 0

Note to self: SPOT intensity recorded for `GLRRARYKFPGQQKI` was 12

Note to self: SPOT intensity recorded for `TKRKRPARLIFYDSK` was 11

Note to self: SPOT intensity recorded for `TKIRRRPQQPLTDFT` was 1

Note to self: SPOT intensity recorded for `NPTKSPPPPPSPSTM` was 0

Note to self: SPOT intensity recorded for `RRGPAPPPPPRASRP` was 10

Note to self: SPOT intensity recorded for `NHSRSLFSLPGNQQS` was 114

Note to self: SPOT intensity recorded for `RLPAPPPPPRRGPAP` was 1

Note to self: SPOT intensity recorded for `VNIPSPSSSPPPIPK` was 8
